Provide the reported log10 of koff of each item.
- Assayed target: T1, His-cynomolgus monkey LIGHT (cynomolgus monkey)
- T1 construct: also called His-cynoLIGHT
- T1 chain: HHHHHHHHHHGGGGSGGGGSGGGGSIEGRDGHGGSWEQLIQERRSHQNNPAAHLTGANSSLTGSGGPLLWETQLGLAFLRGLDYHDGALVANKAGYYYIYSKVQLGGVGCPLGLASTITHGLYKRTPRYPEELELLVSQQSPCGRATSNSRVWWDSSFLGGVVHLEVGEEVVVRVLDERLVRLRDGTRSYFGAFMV
- Protocol details: SPR, Biacore 8K, antibody on CM5 chip
Hi team, quick reminder: these entries are log10 of koff (s⁻¹).

LT-m64 (antibody, human IgG4, V domains shown) VH: EVKLEESGAELVKPGASVRLSCKTSGYTFTNYYVYWVKQRPGQGLEWIGEINPTNGDPNFNEKFKSKATLTVDKSSSTAYMHLSSLTSEDSAVYYCTRSNWDYGNAMDFWGQGTSVTVSS VL: DIVMTQSPASLAVSLGQRATISCKASQSVDFDGDGYMNWYQQKPGQPPKLLIYKASHLDSGIPARFSASGSGTDFTLNIHPVEEEDAATYYCQQSIEDPFTFGSGTKLEIK: -4.31
LT-m55 (antibody, human IgG4, V domains shown) VH: EVQLQQSGAELVKPGASVKLSCKASGYTFATYYMYWVKQRPGQGLEWIGEINPTNGGTIFNEKFKTKATLTVDKSSSTAYMQLSSLTSEDSAVYYCARGNWPYWSFDVWGAGTSVTVSS VL: DIVLTQSPASLAVSLGQRATISCKASQSVDFDGDNYMNWYQQKPGQPPKLLIYAASNLDSGIPARFSASGSGTDFTLNIHPVEEEDAATYYCQQSIEDPWTFGGGTKLEIK: -4.23
LT-m18 (antibody, V domains shown) VH: EVKLLESGPELVKPGASVKISCKASGYSFTGYFMNWVKQSHGKSLEWIGRIYPYSGDTFYNQKFNNKATLTVDKSSSTAHLELLSLTSEDSAVYYCGRSEHFGRNYGTGAVDYWGQGTSVTVSS VL: DIVLTQSPLSLPVSLGDQASISCRSSQSLVHSNGNTYLHWYLQKPGQSPKLLIYKVSNRFSGVPDRFSGSGSGTDFTLKISRVEAEDLGVYFCSQSTHVPLTFGDGTRLEIK: -4.90
LT-m17 (antibody, human IgG4, V domains shown) VH: QVQLQQSGPELVKPGASVKISCKASGYSFTGYFMNWVKQSHGKSLEWIGRIYPYSGDTFYNQKFNNKATLTVDKSSSTAHLELLSLTSEDSAVYYCGRSEHFGRNYGTGAVDYWGQGTSVTVSS VL: DVVMTQTPLSLPVSLGDQASISCRSSQGLVHSNGNTYLHWYLQKPGQSPKLLIYKVSNRFSGVPDRFSGSGSGTDFTLKISRVEAEDLGIYFCSQSTHVPYTFGGGTKLEIK: -5.37
LT-m85 (antibody, human IgG4, V domains shown) VH: EVQLQQSGAELVKPGASVKMSCKASGYTFTSYNVHWVKQTPGQGLEWIGAVYPGNGDTSYNQKFKGKATLTADKSSNTAYMQLSSLTSEDSAVYYCARGSYYYTSSYFDHWGQGTTLTVSS VL: DIVLTQSPASLAVSLGQRATISCKASQSVDFDGDSYMNWYQQKPGQPPKLLIYTASNLESGIPARFTGSGSGTDFTLNIHPVEEEDAATYYCQQSYEDPFTFGSGTKLEIK: -4.17

Specify log10 of koff for LT-m58 (antibody, human IgG4, V domains shown) VH: QVQLQQSGAEMASPGASVTLSCKASGYTFIDHIMNWVKKRPGQGLEWIGRIYPVSGETNYNQKFMGKATFSVDRSSSTVYMVLNSLTSEDPAVYYCGRGSYYWNAMDYWGQGTTLTVSS VL: DIVMTQSPASLAVSLGQRATISCKASQSVDFDGDSYMNWYQQKPGQPPKLLIYSASNLESGIPARFSGSGSGTDFTLNIHPVEEEDAATYYCQQSIEDPWTFGGGTKLEIK and stop.
-4.91
